So I've got a bunch of molecules here, and I need their GI50 values.
system: KM-20L2; assay: NCI tumour cell line growth inhibition, 48 h
Active and inactive are the calls of the source. Rule as the data show it: active = GI50 up to about 1.1 µM and inactive = higher.

Input: Which GI50 reading was recorded for the molecule [C-]#[N+][C@@H]1C2[C@H](CC[C@@]1(C)O)C(=C)CC[C@@H]2[C@@]1(C)CC[C@H](Cl)C(C)(C)O1 (some centres undefined) ?
Output: 6.68 µM (inactive)

Input: What does the record list as GI50 for O=C1CC2(CCC3=C(O2)c2ccccc2NC(=O)C3)C(=O)c2ccccc2N1 (centres undefined) ?
Output: > 100 µM (inactive)

Input: # query: GI50 of entry N#CC(C(=O)CCCC(=O)Nc1ccc(Cl)cc1Cl)c1ccc(Cl)cc1 (centres undefined)
Output: > 100 µM (inactive)

Input: Name the reported GI50 value associated with the molecule CCC12C=C(C(=O)OC)N3c4ccccc4C4CCN(CCC1)C2C43 (centres undefined)
Output: 19.1 µM (inactive)

Input: Returns the measured GI50 for the input molecule. Input: C#CC1(O)CCC2C3CCc4cc(Oc5nc(F)nc(-c6c7ccccc7c7n6CCS7)n5)ccc4C3CC[C@@]21C (some centres undefined)
Output: 29.2 µM (inactive)

Input: Quick one: GI50 of O=c1c(C(c2ccc(Cl)cc2)c2c(O)c3ccccc3n(-c3ccccc3)c2=O)c(O)c2ccccc2n1-c1ccccc1 ?
Output: 37.6 µM (inactive)

Input: Entry under review: Nc1ccn(CCOC(=O)c2ccccc2)c(=O)n1 . Reported GI50?
Output: > 100 µM (inactive)

Input: Form field: reported GI50 of C[C@@H](N[C@H]1CCC[C@@H]1O)c1ccccc1.C[C@@H](N[C@H]1CCC[C@H]1O)c1ccccc1
Output: 38.2 µM (inactive)

Input: Suppose we examine the molecule NNC(=S)N/N=C(\CCCC(=O)NCCc1ccccc1)CC(=O)c1ccccc1 ; what GI50 value has been reported?
Output: > 100 µM (inactive)

---

tested on: COLO 205; experiment: NCI tumour cell line growth inhibition, 48 h
Calls of active or inactive are those of the source. Rule as the data show it: active = GI50 up to about 1.1 µM and inactive = higher.
In this exercise, the only acceptable responses are active, inactive

Input: Hey, what did the test say about CSc1[nH]cnc1C(N)=S ?
Output: inactive

Input: What outcome does the record of this test show for Cn1nc(-c2ccccc2)c(C(=O)/C=C/c2ccc(Cl)cc2)c(N2CCOCC2)c1=O ?
Output: inactive

Input: I'd appreciate the recorded outcome for COC(=O)c1cc(NC(=O)c2cc(NC(=O)Cc3c[nH]c4ccccc34)cn2C)cn1C from this test.
Output: inactive

Input: Answer briefly: the call reported for O=C(O)[C@@H]1CCCN1 in this assay.
Output: inactive

Input: Which outcome was assigned to CCOC(NC(=O)CC)(C(F)(F)F)C(F)(F)F in this test?
Output: inactive

Input: Tell me the recorded outcome of this test for CCOC(=O)[C@@H]1ON2O[C@H](OC3CCCCC3c3ccccc3)C[C@H]3OC(=O)[C@@H]1C32 (stereo partly specified) .
Output: inactive

Input: Write down the call the test reported for this molecule. Item: CNC1(c2cc3ccccc3s2)CCCCC1
Output: inactive

Input: Hi, sorry to bother you, what did the test record for C=CCN(c1cc(OC)c2[nH]c(C(=O)O)c(C)c2c1[N+](=O)[O-])S(C)(=O)=O ?
Output: inactive

Input: Check the results log: what was the call for Cc1cccc(-c2cc(O)c3cc(C)cnc3n2)c1 ?
Output: active

Input: What was the test verdict on N#Cc1c(NC(=S)NC(=O)c2ccccc2)nc2c(c1-c1ccccc1)CCC2 ?
Output: inactive

Input: What did this assay record as the result for O=C(O)c1cccc(S(=O)(=O)NN2C(=O)CSC2c2c(O)ccc3ccccc23)c1 (stereo unspecified) ?
Output: inactive

---

tested on: RXF 393; experiment: NCI tumour cell line growth inhibition, 48 h
Activity calls are given as the source filed them. No stated cut-off is given here; in the data, active = GI50 up to about 1.1 µM and inactive = higher.
Observable: GI50

Input: Query the reported GI50 for RXF 393; item: c1ccc2c(c1)ccc1ncccc12
Output: > 100 µM (inactive)

Input: Form entry - test system: RXF 393; read-out: GI50; compound: NC(=O)CCCC(NCc1c2ccccc2nc2ccccc12)C(=O)O (stereo unspecified)
Output: 51.8 µM (inactive)

Input: Recorded GI50 for NC(=O)c1sc2nc3ccccc3n2c1N with RXF 393, please?
Output: 21.1 µM (inactive)

Input: Lab request: please report GI50 under test system RXF 393 for Cc1nc(O)nc(N/N=C/c2ccc(Cl)c(Cl)c2)c1C(=O)Nc1ccc(Cl)c(Cl)c1
Output: 15.2 µM (inactive)

Input: Notebook: pull reported GI50 for RXF 393, entry CN(C)CCNC(=O)c1cccc2nc3cc(Cl)ccc3nc12
Output: 2.15 µM (inactive)

Input: Return GI50 measured with RXF 393 given this compound: Cc1nc(C)c(N2CCN(C(=O)NC(CCC(=O)O)C(=O)O)CC2)c(O)n1 (stereo unspecified)
Output: > 100 µM (inactive)

Input: # get_value(readout= GI50, system= RXF 393) for N=C(CC/C(N)=N/O)NO
Output: > 100 µM (inactive)

Input: Give RXF 393 GI50 for CCOC(=O)[C@@H]1ON2O[C@H](OC3CCCCC3c3ccccc3)C[C@H]3OC(=O)[C@@H]1C32 (stereo partly specified)
Output: > 100 µM (inactive)

Input: State its GI50 on RXF 393: N=C(N)NCCN1CCCCCc2ccccc21
Output: > 10 µM (inactive)

Input: Short answer please: GI50, RXF 393, entry CCCCCOC(=O)c1cc2cc(CCl)ccc2oc1=O
Output: 2.18 µM (inactive)

Input: Lab note: need GI50 for COc1ccc(-c2cc(O)c3cc4c(cc3n2)OCO4)c(OC)c1OC on RXF 393, anyone have it?
Output: > 100 µM (inactive)

Input: Return GI50 measured with RXF 393 given this compound: COC(=O)C1(C)NCCc2c1[nH]c1ccccc21 (stereo unspecified)
Output: > 100 µM (inactive)

Input: Identify the measured GI50 of Cc1ccc(C2C(C(=O)C(C)(C)C)N2S(=O)(=O)c2ccc(C)cc2)cc1 (stereo unspecified) for RXF 393.
Output: 21 µM (inactive)

Input: Test system RXF 393; read-out GI50; what value for O=c1c(C(c2ccc(Cl)cc2)c2c(O)c3ccccc3n(-c3ccccc3)c2=O)c(O)c2ccccc2n1-c1ccccc1 ?
Output: 36.6 µM (inactive)

Input: What value of GI50 on RXF 393 does CN1CCOC(c2ccc(Cl)cc2)O1 (stereo unspecified) have?
Output: > 100 µM (inactive)

Input: Missing value: GI50, RXF 393, entry CCc1nnc(S)n1/N=C\c1ccc(-c2ccccc2Cl)o1 . Fill in?
Output: 38.9 µM (inactive)

Input: Lab note: need GI50 for C=CCN(c1cc(OC)c2[nH]c(C(=O)O)c(C)c2c1[N+](=O)[O-])S(C)(=O)=O on RXF 393, anyone have it?
Output: > 100 µM (inactive)

Input: For the record O=C(O)c1ccccc1CC(Cc1ccc2c(c1)CCC2)C(=O)O (stereo unspecified) , what value of GI50 is listed for RXF 393?
Output: > 100 µM (inactive)

Input: Under RXF 393: GI50 value of COCCN(C(C)=O)C1CCC2(SCCS2)c2[nH]c3ccccc3c21 (stereo unspecified) ?
Output: > 100 µM (inactive)

Input: Reported GI50 for RXF 393, given COc1ccc(-c2cc3c(nn2)-c2ccccc2C3=O)cc1 ?
Output: > 10 µM (inactive)

Input: Fill in the recorded GI50 for this compound, with RXF 393 as test system: Cc1ccc(NC(=O)c2cc(S(=O)(=O)N3CCNNC3=O)c(S)cc2Cl)cc1
Output: 27.3 µM (inactive)

Input: I'm curious: which GI50 was measured for CCCC(O)C(NC(=O)CCl)C(=O)O (stereo unspecified) tested on RXF 393?
Output: > 100 µM (inactive)

Input: Item: O=C(O)CC[P+](c1ccccc1)(c1ccccc1)c1ccccc1 Test system: RXF 393 Read-out: GI50 Value: ?
Output: > 100 µM (inactive)

Input: Query for RXF 393: what GI50 does the record show for CC1OC2=N[C@@H]1C(=O)N[C@@H](C(C)C)C1=N[C@H](C(=O)N[C@@H](C(C)C)C3=N[C@H](C(=O)N[C@@H](C(C)C)C4=N[C@H](C(=O)N[C@H]2C(C)C)C(C)O4)C(C)O3)C(C)O1 (stereo partly specified) ?
Output: > 10 µM (inactive)

Input: Find the measured GI50: item Nc1ncnc2c1ncn2C1OC(CSCC(F)(F)F)C(O)C1O (stereo unspecified) , target or system RXF 393.
Output: > 100 µM (inactive)

Input: Look up GI50 with RXF 393 for this compound: CC(C)CCCC(C)[C@H]1CCC2[C@@H]3CCC4Nc5nocc5C[C@]4(C)C3CC[C@@]21C (stereo partly specified)
Output: 14.8 µM (inactive)

Input: Enter reported GI50 observed with RXF 393 for CCCNC1=C(C)C(=O)C2=C(C1=O)[C@H](COC(N)=O)[C@]1(OC)[C@@H]3N[C@@H]3CN21
Output: 12 µM (inactive)

Input: Lookup: GI50 / RXF 393 / C[C@@H]1OC(=O)/C(=C\N(C)C)[C@H]2CC(=O)N(CCc3cn(S(=O)(=O)C(F)(F)F)c4ccccc34)C[C@H]12
Output: > 100 µM (inactive)

Input: # query: GI50 | item CC1=N/C(=C\c2cccc3ccccc23)C(=O)O1 | system: RXF 393
Output: > 100 µM (inactive)

Input: Give recorded GI50 with RXF 393 for the following compound: COc1cc(/C=C(\NC(=O)c2ccccc2)c2nc3cc([N+](=O)[O-])ccc3[nH]2)cc(OC)c1OC
Output: > 100 µM (inactive)

Input: Test system RXF 393; read-out GI50; what value for Nc1nc(N)c2ncn(-c3ccccc3)c2n1 ?
Output: 57.9 µM (inactive)

Input: # query: GI50 | item CO/C(=N\N=C(/C)C(F)(F)F)c1ccncc1 | system: RXF 393
Output: > 100 µM (inactive)

Input: Notebook entry, RXF 393 assay: GI50 of CC(=O)Nc1ccc2[nH]c(C(=O)N3CC(CCl)c4c3cc([N+](=O)[O-])c3ccccc43)cc2c1 (stereo unspecified) = ?
Output: 4.74 µM (inactive)

Input: Which GI50 is reported with RXF 393 for this entry: O=C1OC(C2Cc3ccc4ccccc4c3C2=O)c2ccccc21 (stereo unspecified) ?
Output: 17.4 µM (inactive)

Input: Request body: readout GI50, system RXF 393, query O=C(O)CCC(=O)c1ccc(Cl)cc1 . Return the value.
Output: > 100 µM (inactive)

Input: Form field - read-out: GI50; system: RXF 393; submitted item: N#Cc1c(-c2ccc(Cl)cc2)c2c([nH]c1=O)-c1ccccc1SC2
Output: 25.2 µM (inactive)

Input: Value wanted: GI50 (RXF 393) of entry CC1=NN(c2nc(N)nc(C(C#N)C(=O)c3cc4c(cc3Cl)Sc3nccn3S4(=O)=O)n2)C(C)(C)C1 (stereo unspecified)
Output: 27.3 µM (inactive)

Input: So what GI50 did C/C(=C\CO)CC[C@@H]1[C@@]2(C)CCCC(C)(C)[C@@H]2CC[C@@]1(C)O get with RXF 393?
Output: 17.6 µM (inactive)

Input: What reported GI50 corresponds to [N-]=[N+]=Nc1ccc2c(c1)Sc1ccccc1N2CCCCN1CCN(Cc2ccc(C(=O)c3ccccc3)cc2)CC1 on RXF 393?
Output: 1.72 µM (inactive)

Input: Lookup: GI50 / RXF 393 / CCCCOCc1cc(CN2CCN(C)CC2)c(O)c2ncccc12
Output: 36.6 µM (inactive)

Input: Look up GI50 with RXF 393 for this compound: CC(C)(C)c1ccnc(/N=C2\N/C(=N\c3cc(C(C)(C)C)ccn3)c3ccccc32)c1
Output: 22.3 µM (inactive)

Data credit: ChEMBL document CHEMBL1201862
